- subject of test: T1, human plasma Kallikrein (human, UniProt P03952 20-638, limits assumed)
- T1 construct: also called hPK; human PK
- protocol notes: enzyme inhibition assay
Numbered stars: 1 amine (or outer) side, 2 acyl side, 3 side chain; on linkers, the order of the positions; unused ones are H or OH. Bridge positions count the residues as written; N and C are the ends. Square brackets hold non-standard residues; d marks the D form. Bip = N[C@@H](Cc1ccc(-c2ccccc2)cc1)C(=O)O; TBMB = c1c(C[*:1])cc(C[*:3])cc1C[*:2]; 3Pal = N[C@@H](Cc1cccnc1)C(=O)O
Record form. Attribute: pKi. Fill in for each entry.
Hey, just a heads up that pKi is the negative log base 10 of the concentration in molar.

Query string: Would you kindly share the measured pKi for Ac-CS[3Pal]PARCLHQDLC-NH2 (linker 1-7-13 via TBMB; SMILES CC(=O)N[C@H]1CSCc2cc3cc(c2)CSC[C@H](NC(=O)[C@H](CCCNC(=N)N)NC(=O)[C@H](C)NC(=O)[C@@H]2CCCN2C(=O)[C@H](Cc2cccnc2)NC(=O)[C@H](CO)NC1=O)C(=O)N[C@@H](CC(C)C)C(=O)N[C@@H](Cc1c[nH]cn1)C(=O)N[C@@H](CCC(N)=O)C(=O)N[C@@H](CC(=O)O)C(=O)N[C@@H](CC(C)C)C(=O)N[C@H](C(N)=O)CSC3) [Ac-(06-34-18) 3Pal2] ?
Result string: 7.23

Query string: // returns reported pKi for input Ac-CSWPARCLHQDLC-NH2 (linker 1-7-13 via TBMB; SMILES CC(=O)N[C@H]1CSCc2cc3cc(c2)CSC[C@H](NC(=O)[C@H](CCCNC(=N)N)NC(=O)[C@H](C)NC(=O)[C@@H]2CCCN2C(=O)[C@H](Cc2c[nH]c4ccccc24)NC(=O)[C@H](CO)NC1=O)C(=O)N[C@@H](CC(C)C)C(=O)N[C@@H](Cc1c[nH]cn1)C(=O)N[C@@H](CCC(N)=O)C(=O)N[C@@H](CC(=O)O)C(=O)N[C@@H](CC(C)C)C(=O)N[C@H](C(N)=O)CSC3, also called Ac-(06-34-18) wildtype; Ac-(06-34-18) WPAR) [Ac-06-34-18(TMB)-NH2]
Result string: 9.77

Query string: Requested read-out: pKi. Entry: Ac-CS[Bip]PARCLHQDLC-NH2 (linker 1-7-13 via TBMB; SMILES CC(=O)N[C@H]1CSCc2cc3cc(c2)CSC[C@H](NC(=O)[C@H](CCCNC(=N)N)NC(=O)[C@H](C)NC(=O)[C@@H]2CCCN2C(=O)[C@H](Cc2ccc(-c4ccccc4)cc2)NC(=O)[C@H](CO)NC1=O)C(=O)N[C@@H](CC(C)C)C(=O)N[C@@H](Cc1c[nH]cn1)C(=O)N[C@@H](CCC(N)=O)C(=O)N[C@@H](CC(=O)O)C(=O)N[C@@H](CC(C)C)C(=O)N[C@H](C(N)=O)CSC3) [Ac-(06-34-18) 4,4,BPal2]
Result string: 6.33
